test system: IGROV-1; experiment: NCI tumour cell line growth inhibition, 48 h
Activity calls are given as the source filed them. Rule as the data show it: active = GI50 up to about 1.1 µM and inactive = higher.
Provide the recorded GI50 for the entries that follow.

Input line: Requested read-out GI50, target or system IGROV-1, entry COc1cc([C@@H]2c3cc4c(c(O)c3C[C@H]3COC(=O)[C@@H]32)OCO4)cc(OC)c1O
Output line: 0.0277 µM (active)

Input line: Another molecule to check: CCN(CC)C(=S)SC1C(=O)NC(=O)NC1=O
Output line: > 100 µM (inactive)

Input line: Another molecule to check: CC(=O)OC12c3ccccc3C(c3ccccc31)C1C(=O)N(N=C(C)C)C(=O)C12 (stereo not given)
Output line: > 100 µM (inactive)

Input line: Another molecule to check: C[C@H]1O[C@@H](O[C@H]2[C@@H](O)C[C@H](O[C@H]3[C@@H](O)C[C@H](O[C@H]4CC[C@@]5(C)[C@H](CC[C@@H]6[C@@H]5CC[C@]5(C)[C@@H](C7=CC(=O)OC7)CC[C@]65O)C4)O[C@@H]3C)O[C@@H]2C)C[C@H](O)[C@@H]1O [DIGITOXIN]
Output line: 0.0365 µM (active)

Input line: Another molecule to check: CC1=CC(=O)/C(=C/NC(=S)NCc2ccccc2)C(=O)O1
Output line: > 100 µM (inactive)

----------
tested on: NCI-H23; test: NCI tumour cell line growth inhibition, 48 h
Calls of active or inactive are those of the source. No stated cut-off is given here; in the data, active = GI50 up to about 1.1 µM and inactive = higher.
PROPERTY NAME: GI50

Input line: Would you mind telling me what GI50 value was observed for Nc1ccc(/N=N/c2ccc(-c3ccc(/N=N/c4c(S(=O)(=O)O)cc5cc(S(=O)(=O)O)c(/N=N/c6ccc([N+](=O)[O-])cc6)c(N)c5c4O)cc3)cc2)c2cc(S(=O)(=O)O)ccc12 ?
Output line: > 100 µM (inactive)

Input line: Another molecule to check: O=C(NCc1ccccc1)c1nn[nH]c1O
Output line: > 100 µM (inactive)

Input line: Another molecule to check: OCC1CC2CC1C1(C2)OCCO1 (stereo not given)
Output line: > 100 µM (inactive)

Input line: Another molecule to check: CC(C)(C)OC(=O)N1NC(c2ccccc2)CC1c1ccccc1 (stereo not given)
Output line: 17.4 µM (inactive)

Input line: Another molecule to check: c1cc(-c2ncc(-c3ccc4c(c3)CCCO4)o2)ccn1
Output line: 14.7 µM (inactive)

Input line: Another molecule to check: O=C1Cc2c([nH]c3ccc(Br)cc23)-c2cc(Br)ccc2N1
Output line: > 100 µM (inactive)

Input line: Another molecule to check: CCOC(=O)C1=C(C)N(NC(=O)Nc2ccccc2)C(=O)C1=P(c1ccccc1)(c1ccccc1)c1ccccc1
Output line: 41.6 µM (inactive)

Input line: Another molecule to check: CC(CC(=O)Nc1ccc(NC(=O)CC(C)/N=N\C(N)=S)cc1)/N=N\C(N)=S (stereo not given)
Output line: > 100 µM (inactive)

Input line: Another molecule to check: CC1CCC(O)(C(C)(C(=O)O)c2ccccc2)CC1 (stereo not given)
Output line: > 100 µM (inactive)

Input line: Another molecule to check: O=C1Nc2cccc3ncn(c23)C2=C1CCCC2
Output line: > 100 µM (inactive)

----------
Provide the recorded GI50 for the entries that follow.
system: IGROV-1; assay: NCI tumour cell line growth inhibition, 48 h
Calls of active or inactive are those of the source. Rule as the data show it: active = GI50 up to about 1.1 µM and inactive = higher.

Input line: Would you mind telling me what GI50 value was observed for COC(=O)[C@@H]1C[C@@H]2c3ccccc3N(S(=O)(=O)c3ccccc3)[C@@H]2N1C(=O)OC ?
Output line: > 100 µM (inactive)

Input line: Another compound to check: C/C=C/C(=O)[C@@H](O)C(C)C
Output line: > 100 µM (inactive)

Input line: Another compound to check: Clc1ccc2oc(CCc3ccccc3)nc2c1
Output line: 51.3 µM (inactive)

Input line: Another compound to check: O=C(O)c1ccc2c(c1)Cc1cc([N+](=O)[O-])ccc1-2
Output line: > 100 µM (inactive)

Input line: Another compound to check: CC1CCC(O)(C(C)(C(=O)O)c2ccccc2)CC1 (stereo unspecified)
Output line: > 100 µM (inactive)

Input line: Another compound to check: CC(=O)/C(=C/N1CC(=O)NC1=S)C(=O)Nc1ccccc1C
Output line: > 100 µM (inactive)

----------
test system: HL-60; test: NCI tumour cell line growth inhibition, 48 h
Active and inactive are the calls of the source. Rule as the data show it: active = GI50 up to about 1.1 µM and inactive = higher.
Give one outcome, nothing more. List: T for active, F for inactive

Input line: Hello, I am checking results. What call was entered for CC1=Nc2c(O)nc(S)nc2NC(c2ccc(Cl)c(Cl)c2)C1 (stereo not drawn) ?
Output line: F

Input line: Another compound to check: S=C(S)N1CCN(c2ccc(Cl)c(Cl)c2)CC1
Output line: F

Input line: Another compound to check: COC(=O)C1(Cc2ccccc2)Cc2ccccc2C1=O (stereo not drawn)
Output line: F

Input line: Another compound to check: CC1CCCCN1CC(=O)c1ccc2c(c1)Sc1ccccc1O2 (stereo not drawn)
Output line: F

Input line: Another compound to check: CC[C@@H]1CC[C@@H]2[C@H](CC[C@]3(C)[C@@H](OS(=O)(=O)c4ccc(C)cc4)CC[C@@H]23)[C@H]1COS(=O)(=O)c1ccc(C)cc1
Output line: F

Input line: Another compound to check: Cc1ccccc1NC(=O)CC(=O)NNC(Sc1ccccc1)c1cc(/N=N/c2ccc(Br)cc2)ccc1O (stereo not drawn)
Output line: T

Input line: Another compound to check: COP(=O)(/C=C/C(NC(=O)C(Cl)(Cl)Cl)c1ccccc1)OC (stereo not drawn)
Output line: F

Input line: Another compound to check: Cc1c(C)c(CC(=O)N2CC2)c(C)c(C)c1CC(=O)N1CC1
Output line: T

Input line: Another compound to check: CC(=O)Nc1ccc(SC#N)c2c(NC(C)=O)cccc12
Output line: F

Input line: Another compound to check: CCCCCCCCCCCCOC(=S)NCCCC
Output line: F

Input line: Another compound to check: O=C(/C=C/c1ccc(OCC(=O)N2CCN(c3ccccc3)CC2)cc1)c1ccccc1
Output line: F

Input line: Another compound to check: Nc1nc(Cl)cc(NCCC2(CO)CCC2)n1
Output line: F

Input line: Another compound to check: Clc1ccc(-c2c(C3=NCCCN3)nnn2-c2ccccc2)cc1
Output line: F

Input line: Another compound to check: O=C(c1ccccc1)N1CCN(C(=S)N(C(=O)c2ccccc2)c2ccccc2)C1=S
Output line: F

Input line: Another compound to check: C=C[C@@]1(O)CCCC[C@@H]1CC(Sc1ccccc1)Sc1ccccc1
Output line: F

Input line: Another compound to check: Cc1ccc(CC2(C(=O)O)Cc3ccc(C)cc3C2)cc1 (stereo not drawn)
Output line: F

Input line: Another compound to check: Cc1ccc(C(=O)N2c3ccccc3N(C)n3cccc3C2CC(=O)O)cc1 (stereo not drawn)
Output line: F

Input line: Another compound to check: CC(C)(C)OC(=O)NCCCCC(NC(=O)OCc1ccccc1)C(N)=O (stereo not drawn)
Output line: F

Input line: Another compound to check: O=C1C=CC(=O)C12CCc1ccccc12
Output line: F

Input line: Another compound to check: CCOC(=O)C1=C(Nc2ccc(Cl)cc2Cl)OCC1=O
Output line: F

Input line: Another compound to check: O=C1c2c(Br)sc(Br)c2[C@@H](O)[C@H]1O
Output line: F

Input line: Another compound to check: NC(=O)C(=CNC(=S)Nc1cccc(C(F)(F)F)c1)C(N)=O
Output line: F

Input line: Another compound to check: O=C1NC(N2CCCC(CO)C2)=N/C1=C\c1cccs1 (stereo not drawn)
Output line: F

----------
Provide the recorded GI50 for the entries that follow.
tested on: SNB-19; experiment: NCI tumour cell line growth inhibition, 48 h
The source made the active and inactive calls. No stated cut-off is given here; in the data, active = GI50 up to about 1.1 µM and inactive = higher.

Input line: Would you mind telling me what GI50 value was observed for CC1=CC2C(C=C1)S(=O)(=O)N1CC21c1ccccc1 (stereo not drawn) ?
Output line: > 100 µM (inactive)

Input line: Another molecule to check: COC(=O)C1=C(C(=O)OC)C(OO)(c2ccccc2)OC1=O (stereo not drawn)
Output line: > 100 µM (inactive)

Input line: Another molecule to check: CCOC(=N)CC(=O)Nc1cccc(C)c1C
Output line: > 100 µM (inactive)

Input line: Another molecule to check: C/C(=N\NC(N)=S)c1ccc(/C(C)=N/NC(N)=S)cc1
Output line: > 100 µM (inactive)

Input line: Another molecule to check: COc1cc2c3c(n(CCCNCCO)c(=O)c2cc1OC)-c1cc2c(cc1C3=O)OCO2
Output line: 0.012 µM (active)

Input line: Another molecule to check: NCCSCCc1ccccc1
Output line: > 100 µM (inactive)

Input line: Another molecule to check: C/C=C/C[C@@H](C)[C@@H](O)[C@H]1C(=O)N[C@@H](CC)C(=O)N(C)CC(=O)N(C)[C@@H](CC(C)C)C(=O)N[C@@H](C(C)C)C(=O)N(C)[C@@H](CC(C)C)C(=O)N[C@@H](C)C(=O)N[C@H](C)C(=O)N(C)[C@@H](CC(C)C)C(=O)N(C)[C@@H](CC(C)C)C(=O)N(C)[C@@H](C(C)C)C(=O)N1C
Output line: 10.5 µM (inactive)

Input line: Another molecule to check: CC(CC(=O)Nc1ccc(NC(=O)CC(C)/N=N\C(N)=S)cc1)/N=N\C(N)=S (stereo not drawn)
Output line: > 100 µM (inactive)
